Hello, the source for this data is patent US9738660B2, in case you need it.

Could you please report measured remaining activity at 0.5 µM for the items listed next?
- target_of_assay: GSG2 (Homo sapiens, UniProt Q8TF76)
- Sequence (Q8TF76 whole entry): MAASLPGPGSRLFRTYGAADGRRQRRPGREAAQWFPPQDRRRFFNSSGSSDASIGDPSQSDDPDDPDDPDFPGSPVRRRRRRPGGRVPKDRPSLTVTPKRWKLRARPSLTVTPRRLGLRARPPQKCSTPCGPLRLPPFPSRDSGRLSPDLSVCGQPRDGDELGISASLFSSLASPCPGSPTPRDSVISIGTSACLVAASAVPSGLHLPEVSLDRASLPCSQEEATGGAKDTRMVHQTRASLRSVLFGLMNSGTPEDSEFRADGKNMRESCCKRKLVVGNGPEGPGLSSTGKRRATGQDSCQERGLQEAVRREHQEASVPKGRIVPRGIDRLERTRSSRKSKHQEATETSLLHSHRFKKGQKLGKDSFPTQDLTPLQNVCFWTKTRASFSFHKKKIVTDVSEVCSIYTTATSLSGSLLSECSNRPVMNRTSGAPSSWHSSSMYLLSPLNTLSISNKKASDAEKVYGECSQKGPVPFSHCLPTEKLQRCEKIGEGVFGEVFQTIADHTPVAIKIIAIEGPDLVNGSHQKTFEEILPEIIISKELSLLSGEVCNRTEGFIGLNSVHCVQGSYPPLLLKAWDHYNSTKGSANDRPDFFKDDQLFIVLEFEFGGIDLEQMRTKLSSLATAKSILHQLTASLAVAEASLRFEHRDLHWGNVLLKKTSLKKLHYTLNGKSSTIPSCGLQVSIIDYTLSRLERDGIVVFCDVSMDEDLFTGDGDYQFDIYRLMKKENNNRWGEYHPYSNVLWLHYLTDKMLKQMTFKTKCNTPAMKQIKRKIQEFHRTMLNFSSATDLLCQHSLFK
- protocol_notes: Kinase Profiler, residual kinase activity
- Type: biochemical
- test_parameters: GSG2; inhibitor at 500 nM; read-out: percentage of the remaining kinase activity
One number for each entry, in %.

compound	unit_name	remaining activity at 0.5 µM
COC1C(N(C)C(=O)C(N)Cc2cn(C(=O)OC(C)(C)C)c3ccccc23)CC2OC1(C)n1c3ccccc3c3c4c(c5c6ccccc6n2c5c31)C(=O)NC4 (centres unmarked)	%	110
COC1C(N(C)C(=O)C(N)Cc2ccc(O)cc2)CC2OC1(C)n1c3ccccc3c3c4c(c5c6ccccc6n2c5c31)C(=O)NC4 (centres unmarked)	%	89.5
COC1C(N(C)C(=O)C(N)CCC(=O)O)CC2OC1(C)n1c3ccccc3c3c4c(c5c6ccccc6n2c5c31)C(=O)NC4 (centres unmarked)	%	69.9
COC1C(N(C)Cc2ccc(-c3ccccc3)cc2)CC2OC1(C)n1c3ccccc3c3c4c(c5c6ccccc6n2c5c31)C(=O)NC4 (centres unmarked)	%	87.8
CN[C@@H]1C[C@H]2O[C@@](C)([C@@H]1OC)n1c3ccccc3c3c4c(c5c6ccccc6n2c5c31)C(=O)NC4 [STU, staurosporine, reference compound]	%	9
COC1C(N(C)C(=O)C(N)CCC(=O)OC(C)(C)C)CC2OC1(C)n1c3ccccc3c3c4c(c5c6ccccc6n2c5c31)C(=O)NC4 (centres unmarked)	%	88

// input: 2 compounds below; output: remaining activity at 0.5 µM for each
1. COC1C(N(C)C(=O)C(N)Cc2c[nH]cn2)CC2OC1(C)n1c3ccccc3c3c4c(c5c6ccccc6n2c5c31)C(=O)NC4 (centres unmarked)
2. COC1C(N(C)C(=O)C(N)Cc2ccc(OC(C)(C)C)cc2)CC2OC1(C)n1c3ccccc3c3c4c(c5c6ccccc6n2c5c31)C(=O)NC4 (centres unmarked)

Solution:
[69.9, 102]
